Origin of values: patent US20170008955A1

# target.desc: T1, cSNK:BSA conjugate (bovine, head-to-tail cyclized; conjugated to BSA carrier)
# T1 construct: also called BSA-cSNK
# protocol: BLI (Octet RED96), 2:1 kinetics, KD2, summary table
Consider the following binders; for each one, report its pKd.
# reply with the number alone; pKd is -log10 of concentration in mol/L

Fill blank: measured pKd of the binder hu5E3-IgG1 (antibody, V domains shown, human IgG1/kappa; also called humanized 5E3 IgG1; IHA variant) VH: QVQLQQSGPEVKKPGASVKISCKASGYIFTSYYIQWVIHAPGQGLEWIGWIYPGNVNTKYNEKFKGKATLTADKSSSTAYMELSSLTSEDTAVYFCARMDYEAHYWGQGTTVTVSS VL: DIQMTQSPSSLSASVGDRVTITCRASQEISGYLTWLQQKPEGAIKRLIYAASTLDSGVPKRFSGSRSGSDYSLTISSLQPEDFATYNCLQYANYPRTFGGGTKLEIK is ____.
9.74

Fill blank: measured pKd of the binder rehu5E3-IgG2 (antibody, V domains shown, human IgG2/kappa) VH: QVQLQQSGPEVVKPGASVKISCKASGYIFTSYYIQWVIHAPGQGLEWIGWIYPGNVNTKYNEKFKGKATLTADKSSSTAYMELSSLRSEDSAVYFCARMDYEAHYWGQGTLVTVSS VL: DIQMTQSPSSLSASLGDRVTLTCRASQEISGYLTWLQQKPEKAIKRLIYAASTLDSGVPKRFSGSRSGSDYTLTISSLQPEDFADYNCLQYANYPRTFGGGTKLEIK is ____.
8.89

Fill blank: measured pKd of the binder hu5E3-IgG2 (antibody, V domains shown, human IgG2/kappa; also called humanized 5E3 IgG2) VH: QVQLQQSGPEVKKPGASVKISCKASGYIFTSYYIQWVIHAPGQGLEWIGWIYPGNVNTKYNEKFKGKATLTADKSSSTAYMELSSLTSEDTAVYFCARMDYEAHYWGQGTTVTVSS VL: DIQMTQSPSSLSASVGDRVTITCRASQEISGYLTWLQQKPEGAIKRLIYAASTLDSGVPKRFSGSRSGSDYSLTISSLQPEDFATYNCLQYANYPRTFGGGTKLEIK is ____.
8.19

Fill blank: measured pKd of the binder rehu5E3-IgG4 (antibody, V domains shown, human IgG4/kappa; also called IgG4 rehu version) VH: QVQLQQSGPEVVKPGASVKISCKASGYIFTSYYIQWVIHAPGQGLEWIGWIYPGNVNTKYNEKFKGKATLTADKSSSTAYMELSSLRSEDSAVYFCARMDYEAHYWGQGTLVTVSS VL: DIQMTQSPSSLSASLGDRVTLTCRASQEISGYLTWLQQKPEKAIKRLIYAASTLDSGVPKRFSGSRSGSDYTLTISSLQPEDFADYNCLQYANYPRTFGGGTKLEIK is ____.
9.40
